procedure.summary: chemical genetic growth profiling, strain panel (AID 1159580);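 further: tested at 20 µM; growth read once vehicle control cultures reached saturation at 30 °C; lower values mean less growth of the strain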
condition.summary: S. cerevisiae deletion strains, growth OD, locus YHR142W, strain chs7
Among all 5,500 compounds or so, about 2,000 (36%) were called active. Another 18% or so got no clear call; they are omitted. No stated cut-off is given here; in the data, active means normalized growth mostly below about 0.91 (no sharp cut-off); inconclusive means no clear call, values can overlap the other calls; inactive means mostly above about 0.92. Some of the results follow.
Thanks in advance; please answer with one of these: YES for active, NO for inactive

Per the assay record, what outcome was assigned to O=C1c2ccccc2C(=O)c2c(O)c(O)cc(O)c21 ?
YES

Also FC(F)(F)COCC(F)(F)F ?
NO

Also Cc1cc(O)c2c(c1O)C(=O)c1c(O)cc(C)c(O)c1C2=O ?
NO

Also C[N+]1(C)C2CC[C@H]1CC(OC(=O)C(O)c1ccccc1)C2 (stereo not given in full) ?
NO

Also CCOC(=O)C1=C(C)NC(C)=C(C(=O)OC)C1c1cccc([N+](=O)[O-])c1 (stereo not given) ?
NO
